- assay-overview: Approximate solubility in solvents at room temperature
- Assay type: physicochemical
- measurement-context: 25 °C, organic solvent or mixture, thermodynamic from solid; Acetic Acid, RT
measurement-kind: solubility

## Input Report measured solubility; entry is CC(C)[C@@H](C)[C@@]1(C)CC[C@]2(C)[C@H]3CC[C@@H]4[C@@]5(COC[C@]4(C)[C@@H](OC[C@](C)(N)C(C)(C)C)[C@H](n4ncnc4-c4ccncc4)C5)C3=CC[C@@]2(C)[C@@H]1C(=O)O
## Output > 25 mg/mL

====

- assay-overview: Approximate solubility in solvents at room temperature
- Assay type: physicochemical
- measurement-context: 25 °C, organic solvent or mixture, thermodynamic from solid; MTBE, RT
measurement-kind: solubility

## Input Identify the reported solubility for the following entry. CC(C)[C@@H](C)[C@@]1(C)CC[C@]2(C)[C@H]3CC[C@@H]4[C@@]5(COC[C@]4(C)[C@@H](OC[C@](C)(N)C(C)(C)C)[C@H](n4ncnc4-c4ccncc4)C5)C3=CC[C@@]2(C)[C@@H]1C(=O)O
## Output > 23 mg/mL

====

- assay-overview: pH value of saturated SCY-078 salt solutions in water
- Assay type: physicochemical
- measurement-context: saturated salt solution in H2O, room temperature, equilibrated 1 hour
- Method: To test the pH, a solution of each compound was equilibrated at room temperature using a rolling incubator (25 rpm) for 1 hour and 24 hours before measurement.
measurement-kind: pH 1 hr
Number only, no unit.

## Input In one line, give reported pH 1 hr of the entry CC(C)[C@@H](C)[C@@]1(C)CC[C@]2(C)[C@H]3CC[C@@H]4[C@@]5(COC[C@]4(C)[C@@H](OC[C@](C)(N)C(C)(C)C)[C@H](n4ncnc4-c4ccncc4)C5)C3=CC[C@@]2(C)[C@@H]1C(=O)O.CS(=O)(=O)O [SCY-078 mesylate Type A] .
## Output 3.4

====

- assay-overview: Approximate solubility in solvents at room temperature
- Type: physicochemical
- measurement-context: 25 °C, organic solvent or mixture, thermodynamic from solid; THF, RT
measurement-kind: solubility

## Input Output measured solubility for this item: CC(C)[C@@H](C)[C@@]1(C)CC[C@]2(C)[C@H]3CC[C@@H]4[C@@]5(COC[C@]4(C)[C@@H](OC[C@](C)(N)C(C)(C)C)[C@H](n4ncnc4-c4ccncc4)C5)C3=CC[C@@]2(C)[C@@H]1C(=O)O
## Output > 23 mg/mL

====

- assay-overview: Approximate solubility in solvents at room temperature
- Assay type: physicochemical
- measurement-context: 25 °C, organic solvent or mixture, thermodynamic from solid; MeOH, RT
measurement-kind: solubility

## Input Determine from records and report solubility for CC(C)[C@@H](C)[C@@]1(C)CC[C@]2(C)[C@H]3CC[C@@H]4[C@@]5(COC[C@]4(C)[C@@H](OC[C@](C)(N)C(C)(C)C)[C@H](n4ncnc4-c4ccncc4)C5)C3=CC[C@@]2(C)[C@@H]1C(=O)O [SCY-078]
## Output 5400 to 6300 µg/mL

====

- assay-overview: Approximate solubility in solvents at room temperature
- Type: physicochemical
- measurement-context: 25 °C, organic solvent or mixture, thermodynamic from solid; 2-MeTHF, RT
measurement-kind: solubility

## Input Annotate the compound CC(C)[C@@H](C)[C@@]1(C)CC[C@]2(C)[C@H]3CC[C@@H]4[C@@]5(COC[C@]4(C)[C@@H](OC[C@](C)(N)C(C)(C)C)[C@H](n4ncnc4-c4ccncc4)C5)C3=CC[C@@]2(C)[C@@H]1C(=O)O [SCY-078] with its measured solubility.
## Output > 25 mg/mL

====

- assay-overview: Approximate solubility in solvents at room temperature
- Assay type: physicochemical
- measurement-context: acetonitrile (ACN), 25 °C, organic solvent or mixture, thermodynamic from solid; ACN, RT
measurement-kind: solubility

## Input Please indicate solubility recorded for CC(C)[C@@H](C)[C@@]1(C)CC[C@]2(C)[C@H]3CC[C@@H]4[C@@]5(COC[C@]4(C)[C@@H](OC[C@](C)(N)C(C)(C)C)[C@H](n4ncnc4-c4ccncc4)C5)C3=CC[C@@]2(C)[C@@H]1C(=O)O [SCY-078]
## Output 2600 to 2900 µg/mL

====

- assay-overview: Approximate solubility in solvents at room temperature
- Assay type: physicochemical
- measurement-context: water (H2O), 25 °C, water, thermodynamic from solid; H2O, RT
measurement-kind: solubility

## Input Determine from records and report solubility for CC(C)[C@@H](C)[C@@]1(C)CC[C@]2(C)[C@H]3CC[C@@H]4[C@@]5(COC[C@]4(C)[C@@H](OC[C@](C)(N)C(C)(C)C)[C@H](n4ncnc4-c4ccncc4)C5)C3=CC[C@@]2(C)[C@@H]1C(=O)O [SCY-078]
## Output < 1900 µg/mL

====

- assay-overview: Approximate solubility in solvents at room temperature
- Type: physicochemical
- measurement-context: 25 °C, organic solvent or mixture, thermodynamic from solid; 1,4-Dioxane, RT
measurement-kind: solubility

## Input Query solubility for CC(C)[C@@H](C)[C@@]1(C)CC[C@]2(C)[C@H]3CC[C@@H]4[C@@]5(COC[C@]4(C)[C@@H](OC[C@](C)(N)C(C)(C)C)[C@H](n4ncnc4-c4ccncc4)C5)C3=CC[C@@]2(C)[C@@H]1C(=O)O [SCY-078]
## Output > 37 mg/mL

====

- assay-overview: Approximate solubility in solvents at room temperature
- Format: physicochemical
- measurement-context: 25 °C, organic solvent or mixture, thermodynamic from solid; Acetone, RT
measurement-kind: solubility

## Input Retrieve solubility measured for CC(C)[C@@H](C)[C@@]1(C)CC[C@]2(C)[C@H]3CC[C@@H]4[C@@]5(COC[C@]4(C)[C@@H](OC[C@](C)(N)C(C)(C)C)[C@H](n4ncnc4-c4ccncc4)C5)C3=CC[C@@]2(C)[C@@H]1C(=O)O and print it.
## Output 8.3 to 12.5 mg/mL

====

- assay-overview: Approximate solubility in solvents at room temperature
- Assay type: physicochemical
- measurement-context: 25 °C, organic solvent or mixture, thermodynamic from solid; Heptane, RT
measurement-kind: solubility

## Input Give solubility for CC(C)[C@@H](C)[C@@]1(C)CC[C@]2(C)[C@H]3CC[C@@H]4[C@@]5(COC[C@]4(C)[C@@H](OC[C@](C)(N)C(C)(C)C)[C@H](n4ncnc4-c4ccncc4)C5)C3=CC[C@@]2(C)[C@@H]1C(=O)O
## Output < 2200 µg/mL

====

- assay-overview: Dynamic Vapor Sorption (DVS) water uptake
- Type: physicochemical
- measurement-context: after DVS experiment

- compound: "CC(C)[C@@H](C)[C@@]1(C)CC[C@]2(C)[C@H]3CC[C@@H]4[C@@]5(COC[C@]4(C)[C@@H](OC[C@](C)(N)C(C)(C)C)[C@H](n4ncnc4-c4ccncc4)C5)C3=CC[C@@]2(C)[C@@H]1C(=O)O.O=C(O)CC(O)(CC(=O)O)C(=O)O [SCY-078 citrate Type A]"
  solid form by XRPD after DVS: "No form change"
- compound: "CC(C)[C@@H](C)[C@@]1(C)CC[C@]2(C)[C@H]3CC[C@@H]4[C@@]5(COC[C@]4(C)[C@@H](OC[C@](C)(N)C(C)(C)C)[C@H](n4ncnc4-c4ccncc4)C5)C3=CC[C@@]2(C)[C@@H]1C(=O)O.O=P(O)(O)O [SCY-078 phosphate Type A]"
  solid form by XRPD after DVS: "no form change"
- compound: "CC(C)[C@@H](C)[C@@]1(C)CC[C@]2(C)[C@H]3CC[C@@H]4[C@@]5(COC[C@]4(C)[C@@H](OC[C@](C)(N)C(C)(C)C)[C@H](n4ncnc4-c4ccncc4)C5)C3=CC[C@@]2(C)[C@@H]1C(=O)O.Cl [SCY-078 HCl Type I]"
  solid form by XRPD after DVS: "No form change"
- compound: "CC(C)[C@@H](C)[C@@]1(C)CC[C@]2(C)[C@H]3CC[C@@H]4[C@@]5(COC[C@]4(C)[C@@H](OC[C@](C)(N)C(C)(C)C)[C@H](n4ncnc4-c4ccncc4)C5)C3=CC[C@@]2(C)[C@@H]1C(=O)O.CS(=O)(=O)O [SCY-078 mesylate Type A]"
  solid form by XRPD after DVS: "no form change"

====

- assay-overview: pH value of saturated SCY-078 salt solutions in water
- Format: physicochemical
- measurement-context: saturated salt solution in H2O, room temperature, equilibrated 24 hours
Recorded measurements of pH 24 hrs, one per entry
# respond with the number and nothing more

Guide cases for pH 24 hrs, answers given:
- compound: "CC(C)[C@@H](C)[C@@]1(C)CC[C@]2(C)[C@H]3CC[C@@H]4[C@@]5(COC[C@]4(C)[C@@H](OC[C@](C)(N)C(C)(C)C)[C@H](n4ncnc4-c4ccncc4)C5)C3=CC[C@@]2(C)[C@@H]1C(=O)O.O=C(O)/C=C/C(=O)O [SCY-078 fumarate Type A]"
  numeric-result: 3.8
- compound: "CC(C)[C@@H](C)[C@@]1(C)CC[C@]2(C)[C@H]3CC[C@@H]4[C@@]5(COC[C@]4(C)[C@@H](OC[C@](C)(N)C(C)(C)C)[C@H](n4ncnc4-c4ccncc4)C5)C3=CC[C@@]2(C)[C@@H]1C(=O)O.O=P(O)(O)O [SCY-078 phosphate Type A]"
  numeric-result: 3.6

## Input Return pH 24 hrs for the following compound: CC(C)[C@@H](C)[C@@]1(C)CC[C@]2(C)[C@H]3CC[C@@H]4[C@@]5(COC[C@]4(C)[C@@H](OC[C@](C)(N)C(C)(C)C)[C@H](n4ncnc4-c4ccncc4)C5)C3=CC[C@@]2(C)[C@@H]1C(=O)O.O=C(O)CC(O)(CC(=O)O)C(=O)O [SCY-078 citrate Type A]
## Output 3.8

## Input Provide only the value of recorded pH 24 hrs for CC(C)[C@@H](C)[C@@]1(C)CC[C@]2(C)[C@H]3CC[C@@H]4[C@@]5(COC[C@]4(C)[C@@H](OC[C@](C)(N)C(C)(C)C)[C@H](n4ncnc4-c4ccncc4)C5)C3=CC[C@@]2(C)[C@@H]1C(=O)O.O=C(O)CNC(=O)c1ccccc1.O=C(O)CNC(=O)c1ccccc1 [SCY-078 hippurate Type B]
## Output 4.2

## Input Input CC(C)[C@@H](C)[C@@]1(C)CC[C@]2(C)[C@H]3CC[C@@H]4[C@@]5(COC[C@]4(C)[C@@H](OC[C@](C)(N)C(C)(C)C)[C@H](n4ncnc4-c4ccncc4)C5)C3=CC[C@@]2(C)[C@@H]1C(=O)O.CS(=O)(=O)O [SCY-078 mesylate Type A] , output reported pH 24 hrs.
## Output 3.6
